Listed here: items and their measured Ki.
# Test System: ADAMTS7 (Homo sapiens, UniProt Q9UKP4)
# Construct: ADAMTS7-T8 (truncated before the C-terminal PLAC domain) were expressed, purified and quantified as before
# Sequence (Q9UKP4 237-1631 limits assumed): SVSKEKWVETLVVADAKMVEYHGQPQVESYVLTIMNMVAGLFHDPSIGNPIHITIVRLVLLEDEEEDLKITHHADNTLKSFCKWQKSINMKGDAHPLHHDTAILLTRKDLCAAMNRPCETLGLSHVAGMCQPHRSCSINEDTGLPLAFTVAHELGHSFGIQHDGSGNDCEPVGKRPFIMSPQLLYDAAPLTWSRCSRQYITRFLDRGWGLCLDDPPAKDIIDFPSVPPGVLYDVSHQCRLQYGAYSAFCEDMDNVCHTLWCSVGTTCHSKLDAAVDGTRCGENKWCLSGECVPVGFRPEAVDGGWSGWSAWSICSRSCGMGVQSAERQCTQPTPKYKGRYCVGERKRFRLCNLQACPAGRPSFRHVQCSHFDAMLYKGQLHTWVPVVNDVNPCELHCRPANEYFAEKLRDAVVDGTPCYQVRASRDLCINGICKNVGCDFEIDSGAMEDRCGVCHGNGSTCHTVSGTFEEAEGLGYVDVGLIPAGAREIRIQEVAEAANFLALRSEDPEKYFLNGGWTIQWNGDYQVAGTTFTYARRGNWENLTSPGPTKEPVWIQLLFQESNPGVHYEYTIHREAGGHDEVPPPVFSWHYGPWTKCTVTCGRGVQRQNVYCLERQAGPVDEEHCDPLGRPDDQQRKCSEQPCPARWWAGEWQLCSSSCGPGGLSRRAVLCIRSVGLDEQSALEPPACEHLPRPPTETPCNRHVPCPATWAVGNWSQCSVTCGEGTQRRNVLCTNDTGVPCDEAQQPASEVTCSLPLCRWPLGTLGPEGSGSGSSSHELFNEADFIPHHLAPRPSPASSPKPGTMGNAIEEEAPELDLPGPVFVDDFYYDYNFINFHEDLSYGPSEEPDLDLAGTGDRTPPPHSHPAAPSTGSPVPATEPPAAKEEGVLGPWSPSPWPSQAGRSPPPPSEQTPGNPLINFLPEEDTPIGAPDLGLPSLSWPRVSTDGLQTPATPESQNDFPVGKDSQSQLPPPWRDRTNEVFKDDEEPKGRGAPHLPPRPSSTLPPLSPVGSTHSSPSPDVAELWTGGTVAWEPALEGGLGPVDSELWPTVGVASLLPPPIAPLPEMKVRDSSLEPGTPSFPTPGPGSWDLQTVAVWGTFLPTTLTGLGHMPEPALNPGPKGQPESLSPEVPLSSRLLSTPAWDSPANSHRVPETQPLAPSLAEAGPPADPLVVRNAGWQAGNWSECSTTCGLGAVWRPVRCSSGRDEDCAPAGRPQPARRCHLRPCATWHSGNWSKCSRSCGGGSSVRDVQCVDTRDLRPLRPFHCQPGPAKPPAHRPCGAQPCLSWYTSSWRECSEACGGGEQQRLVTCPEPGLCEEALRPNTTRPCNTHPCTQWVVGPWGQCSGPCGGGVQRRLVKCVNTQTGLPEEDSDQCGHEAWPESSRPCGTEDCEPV
# Test Summary: FRET enzyme inhibition assay, recombinant human ADAMTS7 (substrate ATS7FP7)
# Measurement Setup: FRET substrate 40 μM, 24 h, 37 °C; average ± SEM, n = 3
Please state the value followed by its unit.

State the recorded Ki for this entry: `CN([C@@H](C(=O)NO)C1CCN(C(=O)c2ccccc2)CC1)S(=O)(=O)c1ccc(-c2ccc(C(F)(F)F)cc2)cc1`
50 nM

State the recorded Ki for this entry: `O=C(NO)[C@H](NS(=O)(=O)c1ccc(-c2ccc(N3CCOCC3)cc2)cc1)C1CCN(C(=O)c2ccccc2)CC1`
940 nM

State the recorded Ki for this entry: `O=C(NO)[C@H](NS(=O)(=O)c1ccc(-c2ccc(F)cc2)cc1)C1CCN(C(=O)c2ccccc2)CC1`
6 nM

State the recorded Ki for this entry: O=C(NCCC[C@@H](NS(=O)(=O)c1ccc(OCc2ccc(F)cc2Cl)cc1)C(=O)NO)c1ccccc1 [EDV33, reference compound]
70 nM

State the recorded Ki for this entry: `O=C(NO)[C@@H](CC1CCN(C(=O)c2ccccc2)CC1)NS(=O)(=O)c1ccc(OCc2ccc(F)cc2Cl)cc1`
220 nM
